study.target: Adenosine receptor A1 (Homo sapiens)
Sequence (P30542 whole entry): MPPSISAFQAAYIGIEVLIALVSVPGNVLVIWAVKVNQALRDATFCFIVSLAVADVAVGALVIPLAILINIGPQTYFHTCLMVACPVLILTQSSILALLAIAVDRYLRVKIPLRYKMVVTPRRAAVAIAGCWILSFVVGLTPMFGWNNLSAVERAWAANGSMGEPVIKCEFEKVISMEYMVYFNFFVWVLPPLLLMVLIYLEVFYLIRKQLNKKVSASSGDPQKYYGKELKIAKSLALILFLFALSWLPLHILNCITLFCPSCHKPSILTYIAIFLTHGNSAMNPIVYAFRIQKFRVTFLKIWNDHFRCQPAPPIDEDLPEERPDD
procedure.summary: Binding affinity to adenosine A1 receptor (unknown origin)
readout.name: pKi
Recall that pKi is obtained by taking minus log10 of the concentration measured in molar.

Exercise: For the compound `CCn1cnc2c(N)nc(NCCc3ccccc3)nc21` , give its reported pKi.
Solution: 6.48

Exercise: For the compound `CCn1cnc2c(NCCc3ccccc3)ncnc21` , give its reported pKi.
Solution: 5.06

----------
study.target: Adenosine receptor A2a (Homo sapiens)
procedure.summary: Displacement of [3H]NECA from human adenosine A2A receptor expressed in CHO cells
Type: cell-based
readout.name: pKi
Recall that pKi is obtained by taking minus log10 of the concentration measured in molar.

Some solved cases for reference:
- CCCn1cnc2c(NCCc3ccccc3)ncnc21: 4.92
- CCCn1cnc2c(N)nc(NCCc3ccccc3)nc21: 6.13
- CCCn1c(Br)nc2c(NCCCc3ccccc3)ncnc21: 5.99
- CCCn1c(-c2ccco2)nc2c(N)nc(NCc3ccccc3)nc21: 8.18
- CCCn1c(-c2ccco2)nc2c(NCc3ccccc3)ncnc21: 7.10

Exercise: For the molecule `CCCn1c(Br)nc2c(N)nc(NCCCc3ccccc3)nc21` , give its reported pKi.
Solution: 6.55

Exercise: For the molecule `CCCn1c(-c2ccco2)nc2c(NCCCc3ccccc3)ncnc21` , give its reported pKi.
Solution: 6.74

----------
study.target: Adenosine receptor A2b (Homo sapiens, UniProt P29275)
Sequence (P29275 whole entry): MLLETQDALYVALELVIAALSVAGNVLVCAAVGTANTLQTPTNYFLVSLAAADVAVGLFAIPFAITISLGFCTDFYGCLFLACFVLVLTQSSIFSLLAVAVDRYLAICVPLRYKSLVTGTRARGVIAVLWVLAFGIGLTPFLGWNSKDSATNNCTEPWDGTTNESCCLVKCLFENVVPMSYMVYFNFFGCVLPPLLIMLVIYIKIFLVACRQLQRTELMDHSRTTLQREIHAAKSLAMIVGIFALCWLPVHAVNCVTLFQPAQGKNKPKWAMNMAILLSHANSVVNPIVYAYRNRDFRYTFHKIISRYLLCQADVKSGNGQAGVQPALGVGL
procedure.summary: Antagonist activity at human adenosine A2B receptor expressed in CHO cells assessed as inhibition of NECA-stimulated adenylyl cyclase activity
Format: functional, cell-based
Recorded pKi by entry
Recall that pKi is obtained by taking minus log10 of the concentration measured in molar.

Exercise: For the compound `CCCn1c(Br)nc2c(N)nc(NCc3ccccc3)nc21` , give its reported pKi.
Solution: 5.76

Exercise: For the compound `CCCn1c(-c2ccco2)nc2c(NCc3ccccc3)ncnc21` , give its reported pKi.
Solution: 5.75

Exercise: For the compound `CCCn1c(-c2ccco2)nc2c(NCCCc3ccccc3)ncnc21` , give its reported pKi.
Solution: 5.73

Exercise: For the compound `CCCn1c(Br)nc2c(NCc3ccccc3)ncnc21` , give its reported pKi.
Solution: 5.13

Exercise: For the compound `CCCn1c(Br)nc2c(NCCc3ccccc3)ncnc21` , give its reported pKi.
Solution: 5.50

Exercise: For the compound `CCCn1c(-c2ccco2)nc2c(NCCc3ccccc3)ncnc21` , give its reported pKi.
Solution: 5.03

Exercise: For the compound `CCCn1c(-c2ccco2)nc2c(N)nc(NCc3ccccc3)nc21` , give its reported pKi.
Solution: 5.34

Exercise: For the compound `CCCn1c(Br)nc2c(NCCCc3ccccc3)ncnc21` , give its reported pKi.
Solution: 5.75

Exercise: For the compound `CCCn1c(-c2ccco2)nc2c(N)nc(NCCCc3ccccc3)nc21` , give its reported pKi.
Solution: 5.08

Exercise: For the compound `CCCn1c(Br)nc2c(N)nc(NCCCc3ccccc3)nc21` , give its reported pKi.
Solution: 5.20

Exercise: For the compound `CCCn1c(Br)nc2c(N)nc(NCCc3ccccc3)nc21` , give its reported pKi.
Solution: 5.83

Exercise: For the compound `CCCn1c(-c2ccco2)nc2c(N)nc(NCCc3ccccc3)nc21` , give its reported pKi.
Solution: 5.69

Exercise: For the compound `CCCn1cnc2c(N)nc(NCCc3ccccc3)nc21` , give its reported pKi.
Solution: 5.03

----------
Recorded log10 of Ki by entry
study.target: Adenosine receptor A3 (Homo sapiens, UniProt P0DMS8)
Sequence (P0DMS8 whole entry, looked up): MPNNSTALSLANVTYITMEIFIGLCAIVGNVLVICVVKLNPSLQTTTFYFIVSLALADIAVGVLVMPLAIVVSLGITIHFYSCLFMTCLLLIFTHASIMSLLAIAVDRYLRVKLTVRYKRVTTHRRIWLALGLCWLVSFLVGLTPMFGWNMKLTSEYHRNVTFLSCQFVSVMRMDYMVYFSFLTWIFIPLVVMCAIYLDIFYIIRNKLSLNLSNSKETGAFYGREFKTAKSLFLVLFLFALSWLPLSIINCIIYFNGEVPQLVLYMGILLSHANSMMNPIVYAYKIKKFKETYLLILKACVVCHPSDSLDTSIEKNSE
procedure.summary: Displacement of [3H]HEMADO from human adenosine A3 receptor expressed in CHO cells
Format: cell-based
Recorded Ki (log10, nM)

Some solved cases for reference:
• CCCn1c(Br)nc2c(NCCc3ccccc3)ncnc21 = 3.40
• CCCn1c(Br)nc2c(NCc3ccccc3)ncnc21 = 4.05
• CCCn1cnc2c(N)nc(NCCCc3ccccc3)nc21 = 4.10
• CCCn1c(Br)nc2c(N)nc(NCc3ccccc3)nc21 = 2.81
• CCCn1c(-c2ccco2)nc2c(N)nc(NCCc3ccccc3)nc21 = 1.75

Exercise: For the molecule `CCCn1c(-c2ccco2)nc2c(NCCCc3ccccc3)ncnc21` , give its reported log10 of Ki.
Solution: 2.98

Exercise: For the molecule `CCCn1c(-c2ccco2)nc2c(N)nc(NCc3ccccc3)nc21` , give its reported log10 of Ki.
Solution: 1.46

Exercise: For the molecule `CCCn1c(-c2ccco2)nc2c(NCCc3ccccc3)ncnc21` , give its reported log10 of Ki.
Solution: 2.91

Exercise: For the molecule `CCCn1c(-c2ccco2)nc2c(N)nc(NCCCc3ccccc3)nc21` , give its reported log10 of Ki.
Solution: 2.42

Exercise: For the molecule `CCCn1c(-c2ccco2)nc2c(NCc3ccccc3)ncnc21` , give its reported log10 of Ki.
Solution: 2.60

----------
Recorded Ki by entry
study.target: Adenosine receptor A3 (Homo sapiens, UniProt P0DMS8)
procedure.summary: Displacement of [3H]HEMADO from human adenosine A3 receptor expressed in CHO cells
Type: cell-based
Express it in µM; write the number only.

Some solved cases for reference:
* CCCn1c(Br)nc2c(N)nc(NCCCc3ccccc3)nc21 | 1.95
* CCCn1cnc2c(NCc3ccccc3)ncnc21 | 29.1
* CCCn1cnc2c(N)nc(NCCc3ccccc3)nc21 | 5.88
* CCCn1cnc2c(N)nc(NCc3ccccc3)nc21 | 5.84
* CCCn1cnc2c(NCCc3ccccc3)ncnc21 | 16.9
* CCCn1cnc2c(NCCCc3ccccc3)ncnc21 | 30

Exercise: Provide Ki, system Adenosine receptor A3 (Homo sapiens, UniProt P0DMS8), entry `CCCn1c(Br)nc2c(NCCCc3ccccc3)ncnc21`
Solution: 12.2

Exercise: Provide Ki, system Adenosine receptor A3 (Homo sapiens, UniProt P0DMS8), entry `CCCn1c(Br)nc2c(N)nc(NCCc3ccccc3)nc21`
Solution: 1.16

----------
study.target: Adenosine receptor A1 (Homo sapiens, UniProt P30542)
procedure.summary: Displacement of [3H]CCPA from human adenosine A1 receptor expressed in CHO cells
Type: cell-based
readout.name: Ki (nM)
Express it in nM; write the number only.

- CCCn1c(-c2ccco2)nc2c(NCc3ccccc3)ncnc21: 546
- CCCn1c(Br)nc2c(NCc3ccccc3)ncnc21: 5620
- CCCn1c(-c2ccco2)nc2c(N)nc(NCc3ccccc3)nc21: 138
- CCCn1cnc2c(NCCCc3ccccc3)ncnc21: 18600
- CCCn1c(Br)nc2c(N)nc(NCCCc3ccccc3)nc21: 583

Here is another compound to look at.
Exercise: Provide Ki, system Adenosine receptor A1 (Homo sapiens, UniProt P30542), entry `CCCn1cnc2c(NCc3ccccc3)ncnc21`
Solution: 42800

----------
study.target: Adenosine receptor A2a (Homo sapiens, UniProt P29274)
Sequence (P29274 whole entry): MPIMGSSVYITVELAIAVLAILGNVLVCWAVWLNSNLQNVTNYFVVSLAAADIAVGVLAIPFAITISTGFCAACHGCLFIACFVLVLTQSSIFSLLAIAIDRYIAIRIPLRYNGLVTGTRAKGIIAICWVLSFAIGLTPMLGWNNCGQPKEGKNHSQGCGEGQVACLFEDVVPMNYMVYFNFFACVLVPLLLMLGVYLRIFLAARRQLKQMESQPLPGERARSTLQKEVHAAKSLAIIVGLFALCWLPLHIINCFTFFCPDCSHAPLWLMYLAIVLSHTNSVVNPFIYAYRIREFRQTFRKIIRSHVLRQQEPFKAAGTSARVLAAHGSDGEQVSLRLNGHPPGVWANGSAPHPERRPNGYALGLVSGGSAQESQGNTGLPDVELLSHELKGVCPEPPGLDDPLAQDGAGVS
procedure.summary: Displacement of [3H]NECA from human adenosine A2A receptor expressed in CHO cells
Type: cell-based
// returns FALSE unless Ki is strictly below 1000 nM, in which case TRUE

- CCCn1cnc2c(NCc3ccccc3)ncnc21: FALSE
- CCCn1cnc2c(N)nc(NCc3ccccc3)nc21: FALSE
- CCCn1cnc2c(N)nc(NCCCc3ccccc3)nc21: FALSE
- CCCn1c(-c2ccco2)nc2c(NCCc3ccccc3)ncnc21: TRUE
- CCCn1c(-c2ccco2)nc2c(N)nc(NCCc3ccccc3)nc21: TRUE

Let us examine a further case.
Exercise: Quick check: Ki of `CCCn1c(Br)nc2c(N)nc(NCc3ccccc3)nc21` under 1000 nM?
Solution: TRUE

----------
study.target: Adenosine receptor A2b (Homo sapiens)
procedure.summary: Antagonist activity at human adenosine A2B receptor expressed in CHO cells assessed as inhibition of NECA-stimulated adenylyl cyclase activity
Type: functional, cell-based
Recorded Ki by entry

Some solved cases for reference:
• CCCn1cnc2c(NCCCc3ccccc3)ncnc21 = > 30 µM
• CCCn1cnc2c(N)nc(NCc3ccccc3)nc21 = > 30 µM
• CCCn1cnc2c(N)nc(NCCCc3ccccc3)nc21 = > 30 µM
• CCCn1cnc2c(NCCc3ccccc3)ncnc21 = > 30 µM

Here is another molecule to look at.
Exercise: For the molecule `CCCn1cnc2c(NCc3ccccc3)ncnc21` , give its reported Ki.
Solution: > 30 µM
